What follows is a record of GI50 for CCRF-CEM leukemia.

# substance_smiles, GI50
rows = [
    ("O=C1C=C(Nc2ccc([N+](=O)[O-])cc2)c2ccccc2C1=O", "3.9 µM"),
    ("COC(=O)C(=Cc1ccccc1[N+](=O)[O-])C(=O)OC", "1.81 µM"),
]

Look up and report measured GI50 for this entry: CC[C@H](Nc1cc(C)nc(N)n1)c1nc2cccc(NCc3ccc(C(=O)NO)cc3)c2c(=O)n1-c1ccccc1
1.62 µM

---

system: NCI-H23 lung; test: NCI tumour cell line growth inhibition, 48 h
measured_property: TGI

As a guide, the following entries are already answered.
# compound, result
rows = [
    ("CC(C1CCCC1=O)C1CCCC1=O (stereo not drawn)", "> 100 µM"),
    ("CN(C)c1nc(N(C)C)sc(=O)n1", "> 100 µM"),
]

Turning now to a further compound:
Recall the reported TGI of CCOC(=O)C1=NC(c2ccccc2)(c2ccccc2)OC1=C(Cl)Cl when tested on NCI-H23 lung.
> 100 µM

---

test system: OVCAR-3 ovarian; experiment: NCI tumour cell line growth inhibition, 48 h
measured_property: TGI

Examples with answers:
# compound, result
rows = [
    ("Cc1c(C)c(S(=O)(=O)N(CCCCCCN)OCCCN)c(C)c2c1OC(C)(C)CC2", "7.53 µM"),
    ("CCc1ccccc1N1C(=O)C(=O)C(c2nc3ccccc3s2)C(=O)C1=O", "> 100 µM"),
    ("COCP1(=S)OC(C)CCN1C(C)C (stereo unspecified)", "> 100 µM"),
    ("CC(C)(C)N1C(=O)N=[N+](/C(=C(\\c2ccccc2)n2nc([O-])n(C(C)(C)C)c2=O)c2ccccc2)C1=O", "> 100 µM"),
    ("COC(=O)c1cc(CC2Cc3cc4c(cc3C2)CCC4)cc2c1CCC2", "> 100 µM"),
]

Give OVCAR-3 ovarian TGI for the following compound: O=C1OC(c2cccc(C(F)(F)F)c2)(c2cccc(C(F)(F)F)c2)c2ccc3ccccc3c21
> 100 µM

Provide TGI, recorded with OVCAR-3 ovarian, of CC(=O)N1CCN([C@H]2CCC[C@@H](NC(=O)c3cc4c(F)ccc(C)c4[nH]3)C2)CC1
> 100 µM

Provide TGI, system OVCAR-3 ovarian, entry Clc1ccc(-c2noc(CN3CCCCC3)n2)cc1
> 100 µM

Give reported TGI for CCC[CH2][Sn]1([CH2]CCC)[O]CC(c2ccccn2)C[O]1 (OVCAR-3 ovarian)
30.5 µM

# return TGI of NS(=O)(=O)c1ccc(N=Nc2ncccc2O)cc1 (system: OVCAR-3 ovarian)
> 100 µM

Specify the recorded TGI for CCOC(=O)Nn1cnnc1C , system: OVCAR-3 ovarian.
> 100 µM

---

Examples of molecules with documented TGI follow.
tested on: MDA-N; assay: NCI tumour cell line growth inhibition, 48 h

# molecule, measured_property, result
measured = [
    ("CC(C)Sc1nncc(/C(N)=N/O)n1", "TGI", "> 100 µM"),
    ("C/C(O)=c1\\cc(C#N)c(=C(C#N)C#N)nc1C", "TGI", "> 100 µM"),
    ("CCOC(=O)C1=CC(C)(C(=O)OCC)Nc2c(nc(SC)[nH]c2=O)N1 (stereo not given)", "TGI", "> 10 µM"),
    ("COc1ccc(C2=Nn3c(nnc3-c3ccccc3)S/C2=C\\c2ccc(-c3ccc([N+](=O)[O-])cc3)o2)cc1", "TGI", "> 100 µM"),
]

State measured TGI of the molecule C/C=C1/C[C@@H](C)[C@@](C)(O)C(=O)OCC2=CC[N+]3([O-])CC[C@@H](OC1=O)[C@@H]23 (stereo not given in full) with MDA-N.
> 100 µM
